All figures here come from PubChem BioAssay (NCI).

System: IGROV1 ovarian
Assay: NCI tumour cell line growth inhibition, 48 h
I'd be grateful if you could share measured TGI for these entries.

State measured TGI of the compound COc1cc(C)c2c(=O)c3ccccc3n(C)c2c1 with IGROV1 ovarian.
89.8 µM

State measured TGI of the compound Oc1ccccc1/C=N/Nc1nc(N/N=C/c2ccccc2O)nc(N/N=C/c2ccccc2O)n1 with IGROV1 ovarian.
> 100 µM

State measured TGI of the compound Cc1ccc2ccccc2c1NC1=NCCO1 with IGROV1 ovarian.
> 100 µM

State measured TGI of the compound COc1cc(C)c(Cl)cc1C1=NN(c2ccc(S(N)(=O)=O)cc2)C(/C=C/c2ccccc2)C1 (centres undefined) with IGROV1 ovarian.
43.9 µM

State measured TGI of the compound N#CCCCC[N+]12CN3CN(CN(C3)C1)C2 with IGROV1 ovarian.
> 100 µM

State measured TGI of the compound CCCCc1c2c(nc3c1CCCC3O)CCCC2 (centres undefined) with IGROV1 ovarian.
> 100 µM

State measured TGI of the compound CC(C)=CCNc1ncnc2nc[nH]c12 with IGROV1 ovarian.
> 100 µM

State measured TGI of the compound CC(=O)[C@@]1(O)CC[C@H]2[C@@H]3C[C@H](C)C4=CC(=O)CC[C@]4(C)[C@H]3[C@@H](O)C[C@@]21C with IGROV1 ovarian.
> 100 µM

State measured TGI of the compound COC(=O)C1=C(C(=O)ON)C2C=CC1(C(Cc1ccccc1)Nc1ccccc1)O2 (centres undefined) with IGROV1 ovarian.
3.49 µM

State measured TGI of the compound Cc1ccc(C)n1-n1c(Cc2ccccc2)n[nH]c1=O with IGROV1 ovarian.
> 100 µM

State measured TGI of the compound CCCCCC/C=C1\CCC(CN2CCCC2)C1=O (centres undefined) with IGROV1 ovarian.
39.6 µM

State measured TGI of the compound N[C@@H]1CCCC[C@H]1N.O=C([O-])C(=O)[O-].[Pt+4] with IGROV1 ovarian.
35.9 µM

State measured TGI of the compound CC(=O)[CH-]C(=O)c1ccccc1.CC(=O)[CH-]C(=O)c1ccccc1.CC1(C)C2CCC1(C)C([O-])C2.CC1(C)C2CCC1(C)C([O-])C2.[Ti+4] with IGROV1 ovarian.
85.8 µM

State measured TGI of the compound COc1ccc(/C=C/C(=O)c2ccc(SC)cc2)cc1OC with IGROV1 ovarian.
25.2 µM

State measured TGI of the compound COC(=O)N1CCc2c(nc(N(C)CCO)[nH]c2=O)C1 with IGROV1 ovarian.
> 100 µM

State measured TGI of the compound CCC/C(=N/N=C(N)N)c1ccc(NC(=O)c2cc3cc(OC)ccc3[nH]2)cc1 with IGROV1 ovarian.
56.9 µM

State measured TGI of the compound CCCc1cc2c(=O)c(C(=O)OC)c[nH]c2cc1N(CC)CC with IGROV1 ovarian.
> 100 µM

State measured TGI of the compound COc1ccc(C(=O)Cn2c(C(=O)/C=C/c3ccco3)nc3ccccc32)cc1 with IGROV1 ovarian.
> 100 µM

State measured TGI of the compound COc1cccc(NC(=O)/C(CC(=O)CC(c2ccccc2)c2c(O)c3ccccc3oc2=O)=N\NC(C)(C)C)c1OC (centres undefined) with IGROV1 ovarian.
> 100 µM

State measured TGI of the compound O=NNc1ccc(S(=O)(=O)c2ccccc2)cn1 with IGROV1 ovarian.
> 100 µM

State measured TGI of the compound C=CC[N+]12CN3CN(CN(C3)C1)C2 with IGROV1 ovarian.
66.4 µM

State measured TGI of the compound CC(=O)O[C@H]1C(=O)[C@@]2(C)[C@H]([C@H](OC(=O)c3cccc(C(F)(F)F)c3)[C@]3(O)C[C@H](OC(=O)[C@H](O)[C@@H](NC(=O)c4ccccc4)c4ccccc4)C(C)=C1C3(C)C)[C@]1(OC(C)=O)CO[C@@H]1C[C@@H]2O with IGROV1 ovarian.
> 23 µM

State measured TGI of the compound CC(=O)Nc1ccc(NC(=O)c2c(Cl)c(Cl)c(Cl)c(Cl)c2-c2nc3ccccc3[nH]2)cc1 with IGROV1 ovarian.
> 100 µM

State measured TGI of the compound COc1cc(-c2nn(-c3cccc(NC(=O)Nc4cc(C(F)(F)F)cc(C(F)(F)F)c4)c3)cc2-c2ccncc2)ccc1Cl with IGROV1 ovarian.
2.34 µM

State measured TGI of the compound O=C(CNc1cccc([N+](=O)[O-])c1)Nn1c(-c2ccccc2)nc2ccccc2c1=O with IGROV1 ovarian.
0.482 µM

State measured TGI of the compound Cc1ccc(N=Nc2ccc(O)c(CN(C)C)c2)cc1C with IGROV1 ovarian.
84.3 µM

State measured TGI of the compound Cc1ccc(/C=C2/SC(Nc3nc(-c4csc(NC5=NC(=O)/C(=C\c6ccc(C)cc6)S5)n4)cs3)=NC2=O)cc1 with IGROV1 ovarian.
> 50 µM

State measured TGI of the compound COc1ccc2nc3ccc(OC)cc3c(SCc3ccc([N+](=O)[O-])cc3)c2c1 with IGROV1 ovarian.
> 100 µM

State measured TGI of the compound COc1cc(NC(C)=O)ccc1C(=O)N/N=C/c1ccc(Cl)cc1Cl with IGROV1 ovarian.
> 100 µM

State measured TGI of the compound CNC(=O)c1n[nH]nc1Sc1c([N+](=O)[O-])ncn1C with IGROV1 ovarian.
> 100 µM

State measured TGI of the compound COC(=O)c1sc2ncc3c(c2c1N)CCCCCC3 with IGROV1 ovarian.
> 100 µM

State measured TGI of the compound CN(C(=O)C12C3C4C1C1C4(C(=O)C45C6C7C4C4C5C6C74C)C3C12C)C(C)(C)C (centres undefined) with IGROV1 ovarian.
> 100 µM

State measured TGI of the compound O=C(c1ccco1)c1nc2cc(Cl)ccc2[n+]([O-])c1C(F)(F)F with IGROV1 ovarian.
> 100 µM

State measured TGI of the compound COc1ccc(/C=C\c2cc(OC)c(OC)c(OC)c2)cc1OC(=O)c1cccc(Cn2cc(CCOC(=O)[C@H](N)Cc3cn(C)c4ccccc34)nn2)c1 with IGROV1 ovarian.
> 100 µM
